// values below are reported self-cleavage
B1: HDV Ribozyme (parent)
chain: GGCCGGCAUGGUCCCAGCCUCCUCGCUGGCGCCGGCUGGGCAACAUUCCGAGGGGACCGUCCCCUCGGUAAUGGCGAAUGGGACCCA

- Variants of: B1
- METHOD SUMMARY: self-cleavage, relative activity (ratio to wild type); higher = more cleavage; co-transcriptional
MEASURED ENDPOINT: self-cleavage

VARIANT IDENTIFIER: G29C A45U
MEASURED ENDPOINT: self-cleavage
NUMBER: 0.0519
//
VARIANT IDENTIFIER: G40U G54A
MEASURED ENDPOINT: self-cleavage
NUMBER: 0.694
//
VARIANT IDENTIFIER: C30A G50C
MEASURED ENDPOINT: self-cleavage
NUMBER: 0.577
//
VARIANT IDENTIFIER: A51U G81C
MEASURED ENDPOINT: self-cleavage
NUMBER: 0.407
//
VARIANT IDENTIFIER: U46G C58U
MEASURED ENDPOINT: self-cleavage
NUMBER: 0.532
//
VARIANT IDENTIFIER: C7G C13A
MEASURED ENDPOINT: self-cleavage
NUMBER: 0
//
VARIANT IDENTIFIER: A42G C44U
MEASURED ENDPOINT: self-cleavage
NUMBER: 0.639
